molecular target: T1, human B7-H1 expressed on cells (human, UniProt Q9NZQ7 19-290); assay: FMAT, hybridoma supernatant, 293T cells expressing human B7-H1
T1 construct: whole, on cells; also called PD-L1; huB7-H1
T1 sequence (Q9NZQ7 19-290): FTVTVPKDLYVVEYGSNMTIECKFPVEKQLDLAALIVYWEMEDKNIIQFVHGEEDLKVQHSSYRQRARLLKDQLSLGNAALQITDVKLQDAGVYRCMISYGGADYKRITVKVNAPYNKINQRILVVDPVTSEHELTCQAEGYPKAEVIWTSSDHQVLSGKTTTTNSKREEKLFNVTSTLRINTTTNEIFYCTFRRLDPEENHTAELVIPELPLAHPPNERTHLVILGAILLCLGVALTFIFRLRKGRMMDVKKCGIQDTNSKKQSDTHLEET

Binder	FL1
2.20A8 (antibody, IgG2, V domains shown, also called mAb 2.20A8) VH: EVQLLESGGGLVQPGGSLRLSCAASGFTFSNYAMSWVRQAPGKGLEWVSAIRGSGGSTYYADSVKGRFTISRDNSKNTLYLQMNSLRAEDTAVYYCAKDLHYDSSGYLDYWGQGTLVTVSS VL: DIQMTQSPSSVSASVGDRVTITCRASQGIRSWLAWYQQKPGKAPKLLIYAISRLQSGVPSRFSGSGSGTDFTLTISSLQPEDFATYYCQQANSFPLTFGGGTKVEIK	10300
3.15G8 (antibody, IgG4, V domains shown, also called mAb 3.15G8) VH: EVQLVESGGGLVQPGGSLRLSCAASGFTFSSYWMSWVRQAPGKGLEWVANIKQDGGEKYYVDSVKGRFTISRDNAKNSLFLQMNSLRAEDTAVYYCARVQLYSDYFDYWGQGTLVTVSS VL: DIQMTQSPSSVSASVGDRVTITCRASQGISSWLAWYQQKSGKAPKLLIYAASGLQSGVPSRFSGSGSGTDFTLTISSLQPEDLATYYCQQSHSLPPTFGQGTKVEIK	8810
3.18G1 (antibody, V domains shown, also called mAb 3.18G1) VH: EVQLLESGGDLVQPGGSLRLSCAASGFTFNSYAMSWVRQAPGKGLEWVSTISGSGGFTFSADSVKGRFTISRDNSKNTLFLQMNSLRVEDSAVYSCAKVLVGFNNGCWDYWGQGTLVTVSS VL: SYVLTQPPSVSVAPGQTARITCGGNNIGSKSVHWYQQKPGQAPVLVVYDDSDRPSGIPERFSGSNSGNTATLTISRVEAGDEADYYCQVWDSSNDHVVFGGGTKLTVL	10900
2.9D10 (antibody, V domains shown, Tested as hybridoma supernatant or purified antibody; also called mAb 2.9D10) VH: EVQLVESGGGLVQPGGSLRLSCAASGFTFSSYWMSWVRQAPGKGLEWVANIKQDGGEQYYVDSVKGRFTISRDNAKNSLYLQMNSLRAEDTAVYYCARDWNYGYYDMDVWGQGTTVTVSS VL: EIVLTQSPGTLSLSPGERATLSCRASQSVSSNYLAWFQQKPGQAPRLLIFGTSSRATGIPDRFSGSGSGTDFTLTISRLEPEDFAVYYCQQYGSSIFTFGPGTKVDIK	7180
2.7A4 (antibody, IgG2, V domains shown, also called mAb 2.7A4) VH: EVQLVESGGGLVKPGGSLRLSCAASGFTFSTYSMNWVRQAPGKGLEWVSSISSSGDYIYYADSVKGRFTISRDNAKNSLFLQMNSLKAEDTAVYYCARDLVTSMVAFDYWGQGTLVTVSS VL: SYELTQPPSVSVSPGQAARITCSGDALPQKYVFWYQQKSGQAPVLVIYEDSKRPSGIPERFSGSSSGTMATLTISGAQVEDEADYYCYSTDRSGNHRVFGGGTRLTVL	6980
